Conditions: 318.15 K; 100 kPa; Liquid
# reported viscosity; entries follow
Attribute measured: viscosity (mPa·s)

INSERT INTO measurements (compound_string, result_value) VALUES
  ('CC12CC3CC(C)(C1)CC(C)(C3)C2', 1.621),
  ('CC12CC3CC(C1)CC(C)(C3)C2', 2.237),
  ('OCC1CCCCC1', 11.43),
  ('CCC12CC3CC(CC(C3)C1)C2', 3.478),
  ('CCCCCCCO', 3.17);

###

# reported viscosity; entries follow
Conditions: 298.15 K; 100 kPa; Liquid
Attribute measured: viscosity (mPa·s)

INSERT INTO measurements (compound_string, unit_string, result_value) VALUES
  ('CC12CC3CC(C1)CC(C)(C3)C2', 'mPa·s', 3.345),
  ('CC12CC3CC(C)(C1)CC(C)(C3)C2', 'mPa·s', 2.338),
  ('CCC12CC3CC(CC(C3)C1)C2', 'mPa·s', 5.565),
  ('CCCCCCCO', 'mPa·s', 5.812),
  ('OCC1CCCCC1', 'mPa·s', 28.67);
